# procedure.details: Solubility determination of nilotinib (saturated solution, 24 h stirring, filtrate analysed by gravimetry)
# Type: physicochemical
# measurement.context: 25 °C, organic solvent or mixture, thermodynamic from solid; Methanol:Acetic Acid 9:1 (w:w); mg per ml saturated solution; read-out: Solubility at 25° C.
measurement.label: solubility at 24 h (µg/mL)
The response must be a number in µg/mL with no trailing unit.

Report solubility at 24 h for Cc1cn(-c2cc(NC(=O)c3ccc(C)c(Nc4nccc(-c5cccnc5)n4)c3)cc(C(F)(F)F)c2)cn1 please.
6000

// provenance: patent US20230293439A1
